# measured-on: Cholinesterase (Homo sapiens, UniProt P06276)
# Sequence (P06276 whole entry): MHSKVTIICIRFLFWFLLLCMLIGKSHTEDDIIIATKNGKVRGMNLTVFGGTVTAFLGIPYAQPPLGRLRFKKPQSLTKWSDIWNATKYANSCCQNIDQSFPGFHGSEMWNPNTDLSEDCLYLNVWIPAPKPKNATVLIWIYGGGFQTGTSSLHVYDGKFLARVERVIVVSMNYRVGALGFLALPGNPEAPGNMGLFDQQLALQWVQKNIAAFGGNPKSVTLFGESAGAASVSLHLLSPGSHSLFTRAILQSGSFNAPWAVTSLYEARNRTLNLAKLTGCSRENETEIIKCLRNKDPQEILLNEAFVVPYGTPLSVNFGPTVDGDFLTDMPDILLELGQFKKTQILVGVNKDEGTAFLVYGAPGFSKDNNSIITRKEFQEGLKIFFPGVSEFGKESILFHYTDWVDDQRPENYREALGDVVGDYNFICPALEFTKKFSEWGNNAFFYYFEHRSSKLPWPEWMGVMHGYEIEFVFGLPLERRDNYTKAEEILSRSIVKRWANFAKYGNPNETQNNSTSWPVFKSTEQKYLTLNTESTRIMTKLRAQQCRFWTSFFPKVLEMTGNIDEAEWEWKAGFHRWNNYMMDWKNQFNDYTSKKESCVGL
A collection of molecules and their measured IC50

molecule: CCC(CC)C(=O)N[C@H]1CC=C2C[C@H]3C(=O)C[C@]4(C)[C@@H]([C@H](C)N(C)C)[C@H](O)C[C@@]4(C)[C@@H]3CC[C@H]2[C@]1(C)CO
IC50: > 10 µM

molecule: CCC(CC)C1=N[C@H]2CC=C3C[C@H]4C(=O)C[C@]5(C)[C@@H]([C@H](C)N(C)C)[C@H](O)C[C@@]5(C)[C@@H]4CC[C@H]3[C@]2(C)CO1
IC50: 1.54 µM

molecule: CC(C)C(=O)N[C@H]1CCC23CC24C(=O)C[C@]2(C)[C@@H]([C@H](C)N(C)C)[C@H](O)C[C@@]2(C)[C@@H]4CC[C@H]3[C@]1(C)CO (stereo partly specified)
IC50: > 10 µM

molecule: C[C@@H]([C@H]1[C@H](O)C[C@@]2(C)[C@@H]3CC[C@@H]4C(=CC[C@@H]5N=C(c6ccccc6)OC[C@]54C)C[C@H]3C(=O)C[C@]12C)N(C)C
IC50: > 10 µM

molecule: CC[C@H](C)C1=N[C@H]2CC=C3C[C@H]4C(=O)C[C@]5(C)[C@@H]([C@H](C)N(C)C)[C@H](O)C[C@@]5(C)[C@@H]4CC[C@H]3[C@]2(C)CO1
IC50: > 10 µM

molecule: CC(C)[C@H]1N[C@H]2CC[C@]34C[C@]35C(=O)C[C@]3(C)[C@@H]([C@H](C)N(C)C)C(O)C[C@@]3(C)[C@@H]5CC[C@H]4[C@]2(C)CO1 (stereo partly specified)
IC50: > 10 µM

molecule: CC(C)C(=O)N[C@H]1CC=C2C[C@H]3C(=O)C[C@]4(C)[C@@H]([C@H](C)N(C)C)[C@H](O)C[C@@]4(C)[C@@H]3CC[C@H]2[C@]1(C)CO (racemic)
IC50: 1.93 µM

molecule: CC(C)C1=N[C@H]2CC=C3CC4C(=O)C[C@]5(C)[C@@H]([C@H](C)N(C)C)[C@H](O)C[C@@]5(C)[C@@H]4CC[C@H]3[C@]2(C)CO1 (stereo partly specified)
IC50: > 1 µM

molecule: CC[C@H](C)C1=N[C@H]2CC=C3C[C@H]4C(=O)C[C@]5(C)[C@@H]([C@H](C)N(C)C)[C@H](O)C[C@@]5(C)[C@@H]4CC[C@H]3[C@]2(C)CN1
IC50: > 10 µM

molecule: CCC(C)C1=N[C@H]2CC=C3C[C@H]4C(=O)C[C@]5(C)[C@@H]([C@H](C)N(C)C)[C@H](O)C[C@@]5(C)[C@@H]4CC[C@H]3[C@]2(C)CO1 (stereo partly specified)
IC50: > 10 µM

molecule: CC[C@H](C)C(=O)N[C@H]1CC=C2C[C@H]3C(=O)C[C@]4(C)[C@@H]([C@H](C)N(C)C)[C@H](O)C[C@@]4(C)[C@@H]3CC[C@H]2[C@]1(C)CO
IC50: > 10 µM
